Assay: Drug concentrations in compartments of the murine FRT after IP dosing
Assay type: in vivo, mouse
Settings: mouse, oviduct; female mice, 10 mg/kg IP, 0.5 hr; read-out: Oviduct concentration
Method: Samples were analyzed via electrospray ionization (ESI) LC-MS/MS on an AB Sciex 4500 (Foster City, CA) triple-quadrupole instrument that was coupled with an Agilent 1290 Infinity Binary Pump and multisampler (Santa Clara, CA) and concentrations (ng/mL or ng/g) were determined using a matrix-matched 10-point standard curve and then converted to nM concentrations. Quantitation of compounds was performed via AB Sciex Multiquant software using the raw analyte:IS peak area ratios. […]
QUANTITY NAME: concentration at 0.5 hr (µM)
One number for each entry, in µM.

Exam item: Dear colleague, I am looking for the recorded concentration at 0.5 hr of the following compound: O=C(c1ccc(OCc2ccc(OC(F)(F)F)cc2)cc1)N1CCN(c2ccc(C(F)(F)F)cn2)CC1 [VU6032735]
Marked response: 94.8
